test: Proxy for plastic degradation [UPLC/UHPLC]; conditions: pH 9; 40 °C
property.label: Proxy for plastic degradation (µM)
One number for each entry, in µM.

Enquiry: Entry unnamed (protein) MRVLAMTLALVASTLATPTALAAPPDYGLPGSYPVAYSDVTAVAGGRSVPARVHYPATTSGTNQPVATGRFPVIAFGHGFFQATSKYTSTSTHLASWGFVVVVPTTQGGLSPSHGAFADDLNTGLTWLVAQDGTTGSRFRDHITTTALGVSGHSMGGGAAVLAAARNPKIKAVSTYAAAETNPSAKAAAATLAAPAQFLAGSQDTITPVGDHQRPMFTAKPPARQLRTITGGFHCGFMDSSGLFCDNGSITRAAQLTASKRVMTSWFRHYLSGDTAARDLVWGQPARTDPAVVFEGTE has what Proxy for plastic degradation?
Return: 18
